test: Plasma concentration in mouse at 10 mg/kg, po after 3 hrs; type: ADME, organism-based; set-up: dose 10 mg/kg, route oral
READOUT_KIND: concentration at 3 h (nM)

I: OC1C2CC3CC1CC(C2)C3(Cc1nnn[nH]1)c1ccc(-c2ccc(F)cc2)cc1 (single isomer, unassigned; enantiomer 1)
II: N#Cc1ccc(-c2ccc(C3(Cc4nnn[nH]4)C4CC5CC3CC(C4)C5O)cc2)cc1 (racemic)
Exercise: Which entry has a larger number for concentration at 3 h, I or II ? # respond with the chosen item's label
Solution: I
(I: 1560 nM, II: 820 nM)
